Data origin, for the record: PubChem BioAssay (NCI)

The following compounds are shown together with reported growth values.
- System: NCI-H226 lung
- ASSAY INFO: NCI-60 one-dose screen, 48 h (100 = growth as untreated, 0 = no growth, -100 = all killed)
- CONDITION LABEL: 10 µM unless noted
About 83,000 compounds went through this panel and 20% of them were active in at least one assay; those are over-represented in the sample as a whole.
Field format: number, assumed %, no unit text.

Below, each entry is followed by its recorded growth result.
{"COMPOUND": "Nc1nn(C(=O)Nc2ccc(Cc3ccccc3)cc2)c2ccc(Cl)cc12", "growth [%]": 63.5}
{"COMPOUND": "Cc1ccc(C(=O)NN2C(=O)CSC2c2cccc([N+](=O)[O-])c2)cn1 (stereo unspecified)", "growth [%]": 95.6}

## Task Look up growth: `CCOC(=O)c1sc2ncc(-c3ccc(C)cc3)n2c1C`
## Result 78.2

## Task Look up growth: `CCN(CC)S(=O)(=O)c1ccc(NC(=O)CSc2nnc(C)n2-c2ccccc2)cc1`
## Result 95.3

## Task Look up growth: `O=C(/C=C/c1sc(Cl)nc1Cl)c1ccccc1`
## Result 99.7

## Task Look up growth: `O=c1[nH][n+](-c2ccc(Br)cc2)no1`
## Result 72.5

## Task Look up growth: `Clc1ccc2c(c1)N(CCCN1CCCC1)c1ccccc1S2`
## Result 88.2
